System: HCT116 (colon)
Assay: In vitro cytotoxic activity (MTT) assay, HCT116
Format: cell-based
Details: Homo sapiens, HCT-116; HCT116 (colon) cells, 96 hours exposure; read-out: Cytotoxicity activity IC50 (50% inhibition of cell proliferation)
property_name: IC50 (nM)
Just the number please, in nM, no unit attached.

IC50 measured on Clc1cccc(Nc2nc3c(nn4cnccc34)c3ccncc23)c1 = 1200

----------
Tested on: MCF7 (breast)
Experiment: In vitro cytotoxic activity (MTT) assay, MCF7
Assay type: cell-based
Conditions: Homo sapiens; MCF7 (breast) cells, 96 hours exposure; read-out: Cytotoxicity activity IC50 (50% inhibition of cell proliferation)
property_name: IC50 (µM)
Just the number please, in µM, no unit attached.

IC50 measured on Clc1cccc(Nc2nc3c(nn4cnccc34)c3ccncc23)c1 [Compound 1] = 5.3

----------
Tested on: MDA-MB-231 (breast)
Assay: In vitro cytotoxic activity (MTT) assay, MDA-MB-231
Type: cell-based
Conditions: Homo sapiens; MDA-MB-231 (breast) cells, 96 hours exposure; read-out: Cytotoxicity activity IC50 (50% inhibition of cell proliferation)
property_name: pIC50
Schema: pIC50 number; meaning minus log10 of the concentration expressed in molar units.

pIC50 measured on Clc1cccc(Nc2nc3c(nn4cnccc34)c3ccncc23)c1 = 5.35

----------
Molecular target: recombinant human CK2 (holoenzyme) (Homo sapiens, UniProt P68400)
Sequence (P68400 whole entry): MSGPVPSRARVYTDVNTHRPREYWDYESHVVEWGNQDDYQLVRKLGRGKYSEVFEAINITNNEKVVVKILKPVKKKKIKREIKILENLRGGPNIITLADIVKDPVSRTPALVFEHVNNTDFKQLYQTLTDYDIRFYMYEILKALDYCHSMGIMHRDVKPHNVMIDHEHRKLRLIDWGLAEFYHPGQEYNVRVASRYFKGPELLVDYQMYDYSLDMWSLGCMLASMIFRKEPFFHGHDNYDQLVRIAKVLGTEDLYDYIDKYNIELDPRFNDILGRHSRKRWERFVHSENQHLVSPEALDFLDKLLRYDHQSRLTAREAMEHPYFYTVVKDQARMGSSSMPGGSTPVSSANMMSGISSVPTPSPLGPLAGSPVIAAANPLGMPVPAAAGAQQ
Sequence (P67870 whole entry partner): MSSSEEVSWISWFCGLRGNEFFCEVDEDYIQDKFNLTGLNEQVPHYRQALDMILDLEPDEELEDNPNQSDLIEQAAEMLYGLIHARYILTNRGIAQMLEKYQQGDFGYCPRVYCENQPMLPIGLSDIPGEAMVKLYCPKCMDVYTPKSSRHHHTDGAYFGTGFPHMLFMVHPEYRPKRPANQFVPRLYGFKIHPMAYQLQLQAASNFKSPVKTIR
Experiment: CK2 Kinase Assay (33P-ATP, filter plate)
Conditions: recombinant human CK2, 10 min at 30° C., eight concentrations; read-out: protein kinase CK2 IC50
property_name: pIC50
Schema: pIC50 number; meaning minus log10 of the concentration expressed in molar units.

# pIC50 measured on recombinant human CK2 (holoenzyme) (Homo sapiens, UniProt P68400) for item Clc1cccc(Nc2nc3c(nn4cnccc34)c3ccncc23)c1 [Compound 1] = 7.52

----------
System: HL60 (leukemia)
Assay: In vitro cytotoxic activity (MTT) assay, HL60
Type: cell-based
Conditions: Homo sapiens, HL-60; HL60 (leukemia) cells, 96 hours exposure; read-out: Cytotoxicity activity IC50 (50% inhibition of cell proliferation)
property_name: IC50 (µM)
Just the number please, in µM, no unit attached.

IC50 measured on Clc1cccc(Nc2nc3c(nn4cnccc34)c3ccncc23)c1 = 4

----------
System: A375 (melanoma)
Assay: In vitro cytotoxic activity (MTT) assay, A375
Format: cell-based
Conditions: Homo sapiens, A-375; A375 (melanoma) cells, 96 hours exposure; read-out: Cytotoxicity activity IC50 (50% inhibition of cell proliferation)
property_name: pIC50
Schema: pIC50 number; meaning minus log10 of the concentration expressed in molar units.

# pIC50 measured on A375 (melanoma) for item Clc1cccc(Nc2nc3c(nn4cnccc34)c3ccncc23)c1 [Compound 1] = 5.44
